Hey, just so you know, these numbers are from patent US9073916B2.

Assay system: erbB2 (Homo sapiens)
Sequence (P04626 23-1255): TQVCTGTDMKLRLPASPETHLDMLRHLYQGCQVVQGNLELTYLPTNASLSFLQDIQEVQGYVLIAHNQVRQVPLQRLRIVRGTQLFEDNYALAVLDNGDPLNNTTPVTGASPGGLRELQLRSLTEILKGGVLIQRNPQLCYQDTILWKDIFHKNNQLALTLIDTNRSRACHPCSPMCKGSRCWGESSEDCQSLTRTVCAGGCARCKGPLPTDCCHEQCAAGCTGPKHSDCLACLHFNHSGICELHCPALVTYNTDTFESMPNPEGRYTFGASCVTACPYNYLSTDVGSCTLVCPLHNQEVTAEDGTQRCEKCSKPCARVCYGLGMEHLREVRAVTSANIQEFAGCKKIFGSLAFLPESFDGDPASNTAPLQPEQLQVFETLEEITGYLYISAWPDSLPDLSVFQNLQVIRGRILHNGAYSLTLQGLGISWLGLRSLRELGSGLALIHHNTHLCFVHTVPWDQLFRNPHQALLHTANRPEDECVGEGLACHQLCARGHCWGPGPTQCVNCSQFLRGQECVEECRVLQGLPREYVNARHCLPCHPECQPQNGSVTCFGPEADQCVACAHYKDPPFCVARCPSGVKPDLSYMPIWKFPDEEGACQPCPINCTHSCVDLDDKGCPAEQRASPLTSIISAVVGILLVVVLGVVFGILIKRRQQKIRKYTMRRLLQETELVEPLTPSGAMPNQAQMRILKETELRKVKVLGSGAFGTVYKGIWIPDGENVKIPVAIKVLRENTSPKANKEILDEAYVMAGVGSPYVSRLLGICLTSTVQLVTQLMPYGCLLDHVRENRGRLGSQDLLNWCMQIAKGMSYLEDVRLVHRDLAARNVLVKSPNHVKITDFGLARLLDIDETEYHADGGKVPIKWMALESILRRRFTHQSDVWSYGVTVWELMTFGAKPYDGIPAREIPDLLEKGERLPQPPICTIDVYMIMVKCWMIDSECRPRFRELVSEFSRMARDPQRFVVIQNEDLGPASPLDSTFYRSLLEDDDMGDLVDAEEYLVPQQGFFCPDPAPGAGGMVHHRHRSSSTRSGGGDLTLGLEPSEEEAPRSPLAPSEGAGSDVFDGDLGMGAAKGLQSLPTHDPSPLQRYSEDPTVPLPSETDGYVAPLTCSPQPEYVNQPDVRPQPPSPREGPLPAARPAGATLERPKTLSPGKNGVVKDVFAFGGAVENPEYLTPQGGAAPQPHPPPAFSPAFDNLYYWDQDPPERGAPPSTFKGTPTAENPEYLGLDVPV
Measurement description: Isolated enzyme inhibition (Invitrogen Z′-LYTE kinase assay)
Assay type: biochemical
Conditions used: 10 μM ATP, duplicate
Quantity name: pIC50
Answer as the number alone; pIC50 is minus log10 of concentration in mol/L.

Chemical smiles	pIC50
Cn1cnc([N+](=O)[O-])c1C[N+](C)(C)CCCC(=O)Nc1ccc2ncnc(Nc3cccc(Br)c3)c2c1	6.72
Cn1cnc([N+](=O)[O-])c1C[N+](C)(C)C/C=C/C(=O)Nc1ccc2ncnc(Nc3cccc(Br)c3)c2c1.[Br-]	6.95
Cn1c(C[N+](C)(C)C/C=C/C(=O)Nc2ccc3ncnc(Nc4cccc(Br)c4)c3c2)ccc1[N+](=O)[O-].[Br-]	6.95

Now turn to the next molecule.
Quote erbB2 (Homo sapiens) pIC50 for entry CN(C)CCCC(=O)Nc1ccc2ncnc(Nc3cccc(Br)c3)c2c1 .
7.13
